- measurement protocol: soluble on expression in E. coli; label from the status in PepcDB or PDB records
readout type: soluble on expression in E. coli

MSLDALTTLPIKKHTALLNRFPETRFVTQLAKKRASWIVFGHYLTPAQFEDMDFFTNRFNAILDMWKVGRYEVALMDGELTSEHETILKALELDYARIQDVPDLTKPGLIVLDMDSTAIQIECIDEIAKLAGVGEEVAEVTERAMQGELDFEQSLRLRVSKLKDAPEQILSQVRETLPLMPELPELVATLHAFGWKVAIASGGFTYFSDYLKEQLSLDYAQSNTLEIVSGKLTGQVLGEVVSAQTKADILLTLAQQYDVEIHNTVAVGDGANDLVMMAAAGLGVAYHAKPKVEAKAQTAVRFAGLGGVVCILSAALVAQQKLSWKSKEGHHHHHH; soluble
MLVLGGISLFLFMVKQNEKAMLNQEKERAAVVLADNETRVLFFYKDTCADCQKVYPTVYEEDQGENNIVFINLNQPKNRHYIKTYTLEKVPTFVTPKRRYVGTDTRKIQQLIAENNDERSEDLEHHHHHH; not soluble
STSGPGGPAAAAGGRKENHQWYVCNREKLCESLQAVFVQSYLDQGTQIFLNNSIEKSGWLFIQLYHSFVSSVFSLFMSRTSINGLLGRGSMFVFSPDQFQRLLKINPDWKTHRLLDLGAGDGEVTKIMSPHFEEIYATELSETMIWQLQKKKYRVLGINEWQNTGFQYDVISCLNLLDRCDQPLTLLKDIRSVLEPTRGRVILALVLPFHPYVENVGGKWEKPSEILEIKGQNWEEQVNSLPEVFRKAGFVIEAFTRLPYLCEGDMYNDYYVLDDAVFVLKPV; soluble
GPGSMSSSNAQAELGPGGSTHSIELGRLIFQGAESKVYCCSFYGALALCKHRFVKRYRDPSLDERLRTQRTRREARALERCVKKGIRAPRLLGADYINTFLVMSYEAGPTVKEALDIEHAAYMQQVSKGKSTSAQQQQPQTTPSPSALGNAAPSPVTAALLQSIGVVVARLHNANIVHGDLTTSNFICTCDGLEAAAPGADGADALASSSPVLPTAEDIVVLDFGLISEKYSTEERAVDLYVLERAIASTHPYLSSFASDIILEGYRSAADPKKGEEALRRLEAVRARGRKRTMIG; not soluble
MAHHHHHHMYSQRLSRVSPYLSNGSLSPRRFYEMLRRYATENLRDNFVQMQYREALLRLSRRDYWHWMGLRYGTLLFFPYGPRPEQTDNIPDWRHDEKIVQKWCAGLTGVPFADAAMRELLTTGFVAHEGRQALAWLLTRGYGQDWRLGAEWLERCSLDYDPFLCYGNFAYFSELILDDFGEPVRSVHWLAHHHDQTGIYVKKWLPLLSKIPPVYIHRPHVLTPRMQAMHGVRLGKTYPYPLKLWDGAQYMLGSDELTTYFDDSSAWHRKTKSGAGGPGHAEALRHGKAIMKVREWNAAILPEEVAQRPWAHHLPASAFESSEDEVETLQMRQRNQNQPTRHGQLSL; not soluble

// next entry
In: Name the reported soluble on expression in E. coli value associated with the sequence `MGSDKIHHHHHHMTAKVISFINMKGGVGKTTLCVGVSEFMAHFKSKKILLIDLDPQFNATQTLMDMYDLTDQYMNDIRFNKTIRLLFEETHSVSERPVLPKPDKVILHLDTSDVIDGELDIICGSIDLIKDDDSRKSKYKRVRKFLREQGLLKHYDYIFIDCPPTISFYTDAALYASDYYIVPTRIDRYSILGINLLKTVIEQAKFDDDLSIEPLGLIYTNYPTNNIPAPKQQEILDVLEENKDVLEIGVFRNKFHYLEHLMTGKSGNIASKYVKSKKDIEKISVEIESKVH`
Out: not soluble
